- Assay Details: Selectivity index, ratio of CC50 for rat L6 cells to IC50 for Trypanosoma brucei gambiense Feo
- Format: functional
Ratio CC50/IC50 reference
Write no unit; give the number alone.

CC(=O)Oc1cccc(N2C(=O)/C(=C/N3N=C(c4ccccc4)CC3c3ccccc3O)SC2=S)c1 (stereo unspecified)	12.4
CC1CS(=O)(=O)CCN1/N=C/c1ccc([N+](=O)[O-])o1 (stereo unspecified) [NIFURTIMOX]	17.8

Incoming: Item COc1ccc(C2CC(c3ccc4ccccc4c3)=NN2/C=C2\SC(=S)N(C)C2=O)cc1 (stereo unspecified) : provide Ratio CC50/IC50
Outgoing: 292

Incoming: Using known records, supply Ratio CC50/IC50 for COc1ccc(C2=NN(/C=C3\SC(=S)N(c4cccc(OC(C)=O)c4)C3=O)C(c3ccccc3O)C2)cc1 (stereo unspecified)
Outgoing: 57.1
